experiment: qHTS assay for small molecule disruptors of the mitochondrial membrane potential (AID 720635); settings: HepG2 mitochondrial membrane potential, Mito-MPS dye ratio; series mostly up to 83.2 µM; further: potency means the concentration at half of the fitted maximal effect
Results filed as inconclusive are left out. Calls of active or inactive are those of the source. The call rests on the fitted dose curve; in most records, active means well fitted inhibition curve with a large enough effect in the signal ratio in the repeat runs; inconclusive means weak or mixed curves, or effect the other way; inactive means flat fitted curve, though single readings scatter; the % refers to the signal ratio.
EXPERIMENTAL_ENDPOINT: Potency

CC(C)NC[C@@H](O)COc1ccc(CC(N)=O)cc1 ... inactive
CCCCCCCCCCCCOC(=O)c1ccc(O)cc1 ... 3.46 µM (active)
COCCOc1cc2cc(C(=O)NC3CCN(C(C)C)CC3)n(CC(=O)Nc3ccc(Cl)cn3)c2cn1 ... inactive
C[Si](Cl)(c1ccccc1)c1ccccc1 ... 26.6 µM (active)
COC(=O)Nc1nc2ccc(C(=O)c3ccccc3)cc2[nH]1 ... 2.27 µM (active)

So what's the measured Potency for this one? `CCCCCCCCCCCCOCCOCCOCCOCCOCCOCCOCCOCCOCCO`
19.7 µM (active)

Endpoint output: Potency of `C[C@@H](O)[C@H](N)C(=O)O` . Value?
inactive

Request the reported Potency associated with `O[C@@H]([C@H](O)[C@H](O)CBr)[C@H](O)CBr`
inactive

Query: Potency; subject: `Nc1nc2c(ncn2COCCO)c(=O)[nH]1`
inactive

I would be grateful if you could share the reported Potency for `OC[C@H]1O[C@H](O[C@H]2O[C@H](CO)[C@@H](O)[C@H](O)[C@H]2O)[C@H](O)[C@@H](O)[C@@H]1O` .
inactive

Given the entry `CC(C)Cn1cnc2c(N)nc3ccccc3c21` , report its measured Potency.
inactive

Give the measured Potency of `O=C1CCCCCCCCCCCCCCCO1` .
inactive

What value of Potency has been reported for the following compound? `CCCCCCCC`
inactive

// returns reported Potency for input `Cc1cc(-n2nc3ccc(Cl)cc3n2)c(O)c(C(C)(C)C)c1`
inactive

Entry `CN(C)C(=O)COC(=O)Cc1ccc(OC(=O)c2ccc(N=C(N)N)cc2)cc1` : reported Potency = ?
inactive

Which measured Potency value corresponds to `Cc1ccc(C(C)C)cc2c(C)ccc1-2` ?
inactive

Which Potency value belongs to CCO[C@@H]1O[C@H](C(COCc2ccccc2)OCc2ccccc2)[C@H](OCc2ccccc2)[C@H]1O (some centres undefined) ?
11.4 µM (active)

Give its Potency value. Item: `Cc1ccc(C(=O)O)cc1`
inactive

Item under review: `OC[C@@H](O)[C@@H](O)CO` . Reported Potency?
inactive

meta.source: PubChem BioAssay (Tox21)
